Test system: human prostatic cancer cell line PC-3
Assay: MTT cell growth inhibition, PC-3
Type: cell-based
Conditions: PC-3, MTT assay, 72 h; read-out: IC50, growth of tumor cell line
pIC50: −log10 of the molar value.
experimental_readout: pIC50

CCC1(O)CC2CN(CCc3c([nH]c4ccccc34)C(C(=O)OC)(c3cc4c(cc3OC)N(C=O)C3C(O)(C(=O)NNC(=O)C5CCCN5C(=O)CNC(=O)OCc5ccccc5)C(O)C5(CC)C=CCN6CCC43C65)C2)C1 (stereo not shown); 7.05
CCC12C=CCN3CCC4(c5cc(C6(C(=O)OC)CC7CC(C(C)(F)F)CN(Cc8c6[nH]c6ccccc86)C7)c(OC)cc5N(C)C4C(O)(C(=O)NNC(=O)C4CCCN4C(=O)CNC(=O)OCc4ccccc4)C1O)C32 (stereo not shown); 6.50
CCC1=CC2CN(C1)Cc1c([nH]c3ccccc13)C(C(=O)OC)(c1cc3c(cc1OC)N(C)C1C(O)(C(=O)NNC(=O)C4CCCN4C(=O)CNC(=O)OCc4ccccc4)C(O)C4(CC)C=CCN5CCC31C54)C2 (stereo not shown); 6.57
CCC1(O)CC2CN(CCc3c([nH]c4ccccc34)C(C(=O)OC)(c3cc4c(cc3OC)N(C)C3C(O)(C(=O)NNC(=O)C5CCCN5C(=O)CNC(=O)OCc5ccccc5)C(O)C5(CC)C=CCN6CCC43C65)C2)C1 (stereo not shown); 7.15

###

System: human leukemia cell line K562
Test: MTT cell growth inhibition, K562
Assay type: cell-based
Settings: Homo sapiens; K562, MTT assay, 72 h; read-out: IC50, growth of tumor cell line
pIC50: −log10 of the molar value.
The entries below come with measured pIC50 values attached.
experimental_readout: pIC50

CC[C@]1(O)C[C@@H]2CN(CCc3c([nH]c4ccccc34)[C@@](C(=O)OC)(c3cc4c(cc3OC)N(C)[C@H]3[C@@](O)(C(=O)NN)[C@H](O)[C@]5(CC)C=CCN6CC[C@]43[C@@H]65)C2)C1 [JJ-CCJ, hydrazinolyzed vinblastine]; 8.44
CCC1=C[C@@H]2CN(C1)Cc1c([nH]c3ccccc13)[C@@](C(=O)OC)(c1cc3c(cc1OC)N(C)[C@H]1[C@@](O)(C(=O)NN)[C@H](O)[C@]4(CC)C=CCN5CC[C@]31[C@@H]54)C2 [JJ-CCRB, hydrazinolyzed vinorelbine]; 7.30
CC[C@]1(O)C[C@@H]2CN(CCc3c([nH]c4ccccc34)[C@@](C(=O)OC)(c3cc4c(cc3OC)N[C@H]3[C@@](O)(C(=O)NN)[C@H](O)[C@]5(CC)C=CCN6CC[C@]43[C@@H]65)C2)C1 [JJ-CCXJ, hydrazinolyzed vincristine]; 7.92
CC[C@]1(O)C[C@@H]2CN(CCc3c([nH]c4ccccc34)[C@@](C(=O)OC)(c3cc4c(cc3OC)N(C)[C@H]3[C@@](O)(C(=O)OC)[C@H](OC(C)=O)[C@]5(CC)C=CCN6CC[C@]43[C@@H]65)C2)C1 [Vinblastine, reference compound]; 9.14

###

System: human normal liver cells LO2
Assay: MTT cytotoxicity on normal cells, LO2
Settings: read-out: IC50, cytotoxicity on normal cell line; LO2, MTT assay
experimental_readout: IC50

CCC1(O)CC2CN(CCc3c([nH]c4ccccc34)C(C(=O)OC)(c3cc4c(cc3OC)N(C)C3C(O)(C(=O)NNC(=O)C5CCCN5C(=O)CNC(=O)OCc5ccccc5)C(O)C5(CC)C=CCN6CCC43C65)C2)C1 (stereo not shown); 96.3 nM
CCC12C=CCN3CCC4(c5cc(C6(C(=O)OC)CC7CC(C(C)(F)F)CN(Cc8c6[nH]c6ccccc86)C7)c(OC)cc5N(C)C4C(O)(C(=O)NNC(=O)C4CCCN4C(=O)CNC(=O)OCc4ccccc4)C1O)C32 (stereo not shown); 301 nM
CCC1=CC2CN(C1)Cc1c([nH]c3ccccc13)C(C(=O)OC)(c1cc3c(cc1OC)N(C)C1C(O)(C(=O)NNC(=O)C4CCCN4C(=O)CNC(=O)OCc4ccccc4)C(O)C4(CC)C=CCN5CCC31C54)C2 (stereo not shown); 183 nM
CCC1(O)CC2CN(CCc3c([nH]c4ccccc34)C(C(=O)OC)(c3cc4c(cc3OC)N(C=O)C3C(O)(C(=O)NNC(=O)C5CCCN5C(=O)CNC(=O)OCc5ccccc5)C(O)C5(CC)C=CCN6CCC43C65)C2)C1 (stereo not shown); 101 nM

###

Tested on: HL-60 xenografts
Assay: HL-60 xenografts in nude mice
Assay type: in vivo
Conditions: HL-60 xenograft nude mice, 1 mg/kg
experimental_readout: Tumor weight (g)

CC[C@]1(O)C[C@@H]2CN(CCc3c([nH]c4ccccc34)[C@@](C(=O)OC)(c3cc4c(cc3OC)N(C)[C@H]3[C@@](O)(C(=O)OC)[C@H](OC(C)=O)[C@]5(CC)C=CCN6CC[C@]43[C@@H]65)C2)C1 [Vinblastine, reference compound]; 0.98
CC[C@]1(O)C[C@@H]2CN(CCc3c([nH]c4ccccc34)[C@@](C(=O)OC)(c3cc4c(cc3OC)N[C@H]3[C@@](O)(C(=O)NN)[C@H](O)[C@]5(CC)C=CCN6CC[C@]43[C@@H]65)C2)C1 [JJ-CCXJ, hydrazinolyzed vincristine]; 0.84
CCC1(O)CC2CN(CCc3c([nH]c4ccccc34)C(C(=O)OC)(c3cc4c(cc3OC)N(C)C3C(O)(C(=O)NNC(=O)C5CCCN5C(=O)CNC(=O)OCc5ccccc5)C(O)C5(CC)C=CCN6CCC43C65)C2)C1 (centres unmarked); 0.41
CCC1=CC2CN(C1)Cc1c([nH]c3ccccc13)C(C(=O)OC)(c1cc3c(cc1OC)N(C)C1C(O)(C(=O)NNC(=O)C4CCCN4C(=O)CNC(=O)OCc4ccccc4)C(O)C4(CC)C=CCN5CCC31C54)C2 (centres unmarked); 0.53
CCC12C=CCN3CCC4(c5cc(C6(C(=O)OC)CC7CC(C(C)(F)F)CN(Cc8c6[nH]c6ccccc86)C7)c(OC)cc5N(C)C4C(O)(C(=O)NNC(=O)C4CCCN4C(=O)CNC(=O)OCc4ccccc4)C1O)C32 (centres unmarked); 0.61

###

The entries below come with measured IC50 values attached.
System: human non-small-cell lung cancer cell line A549
Test: MTT cell growth inhibition, A549
Assay type: cell-based
Conditions: Homo sapiens; A549, MTT assay, 72 h; read-out: IC50, growth of tumor cell line
experimental_readout: IC50 (nM)

CC[C@]12C=CCN3CC[C@@]4(c5cc([C@@]6(C(=O)OC)C[C@@H]7C[C@@H](C(C)(F)F)CN(Cc8c6[nH]c6ccccc86)C7)c(OC)cc5N(C)[C@H]4[C@@](O)(C(=O)NN)[C@@H]1O)[C@@H]32 [JJ-CCFN, hydrazinolyzed vinflunine]; 206
CCC1=C[C@@H]2CN(C1)Cc1c([nH]c3ccccc13)[C@@](C(=O)OC)(c1cc3c(cc1OC)N(C)[C@H]1[C@@](O)(C(=O)NN)[C@H](O)[C@]4(CC)C=CCN5CC[C@]31[C@@H]54)C2 [JJ-CCRB, hydrazinolyzed vinorelbine]; 73.1
CC[C@]1(O)C[C@@H]2CN(CCc3c([nH]c4ccccc34)[C@@](C(=O)OC)(c3cc4c(cc3OC)N(C)[C@H]3[C@@](O)(C(=O)OC)[C@H](OC(C)=O)[C@]5(CC)C=CCN6CC[C@]43[C@@H]65)C2)C1 [Vinblastine, reference compound]; 2.31
CC[C@]1(O)C[C@H]2CN(CCc3c([nH]c4ccccc34)[C@@](C(=O)OC)(c3cc4c(cc3OC)N(C=O)[C@H]3[C@@](O)(C(=O)OC)[C@H](OC(C)=O)[C@]5(CC)C=CCN6CC[C@]43[C@@H]65)C2)C1 [Vincristine, reference compound]; 1.32
CCC1=C[C@@H]2CN(C1)Cc1c([nH]c3ccccc13)[C@@](C(=O)OC)(c1cc3c(cc1OC)N(C)[C@H]1[C@@](O)(C(=O)OC)[C@H](OC(C)=O)[C@]4(CC)C=CCN5CC[C@]31[C@@H]54)C2 [Vinorelbine, reference compound]; 14.5
CC[C@]1(O)C[C@@H]2CN(CCc3c([nH]c4ccccc34)[C@@](C(=O)OC)(c3cc4c(cc3OC)N(C)[C@H]3[C@@](O)(C(=O)NN)[C@H](O)[C@]5(CC)C=CCN6CC[C@]43[C@@H]65)C2)C1 [JJ-CCJ, hydrazinolyzed vinblastine]; 6.43
CC[C@]12C=CCN3CC[C@@]4(c5cc([C@@]6(C(=O)OC)C[C@@H]7C[C@@H](C(C)(F)F)CN(Cc8c6[nH]c6ccccc86)C7)c(OC)cc5N(C)[C@H]4[C@@](O)(C(=O)OC)[C@@H]1OC(C)=O)[C@@H]32 [Vinflunine, reference compound]; 137
CC[C@]1(O)C[C@@H]2CN(CCc3c([nH]c4ccccc34)[C@@](C(=O)OC)(c3cc4c(cc3OC)N[C@H]3[C@@](O)(C(=O)NN)[C@H](O)[C@]5(CC)C=CCN6CC[C@]43[C@@H]65)C2)C1 [JJ-CCXJ, hydrazinolyzed vincristine]; 4.34
